# target-of-assay: Neutrophil elastase (Homo sapiens)
# test-description: Compound was tested for the inhibition of human leukocyte elastase (HLE) by ratio of Kobs to that of KI
metric: K obs / 1 (M⁻¹ s⁻¹)
Entry rule: numbers only, all in M⁻¹ s⁻¹.

// field: K obs / 1; key: O=C(CN1C(=O)c2ccccc2S1(=O)=O)OCc1ccccc1 ; value = 4

// field: K obs / 1; key: CC(C)Cc1ccc(C(C)C(=O)CN2C(=O)CC(Cc3ccccc3)C2=O)cc1 (stereo unspecified) ; value = 45

// field: K obs / 1; key: CC(C)C[C@H](NC(=O)OCc1ccccc1)C(=O)CN1C(=O)c2ccccc2S1(=O)=O ; value = 420

// field: K obs / 1; key: CC(C)Cc1ccc(C(C)C(=O)CN2C(=O)c3ccccc3S2(=O)=O)cc1 (stereo unspecified) ; value = 160

// field: K obs / 1; key: CC(C)C[C@H](NC(=O)OCc1ccccc1)C(=O)CN1C(=O)CC(Cc2ccccc2)C1=O (stereo partly specified) ; value = 3

// field: K obs / 1; key: CC(C)Cc1ccc(C(C)C(=O)CN2C(=O)CC(CC(C)C)C2=O)cc1 (stereo unspecified) ; value = 16
